ASSAYED_SYSTEM: antigen RBD-FC protein (SARS-CoV-2 RBD protein) (SARS-CoV-2, UniProt P0DTC2 319-541)
PROTOCOL_TEXT: thin film interference (Gator), RBD-Fc captured on anti-human Fc probe, nano antibody in solution
Hi there, I'd appreciate the recorded koff for every entry that follows.
Answers are plain numbers, in s⁻¹.

For orientation, consider the following solved cases.
NBS1-3 (VHH, also called nano antibody NBS1-3) VHH: QVQLVESGGGLVQPGASLRLSCAASGRTFSSTGMGWFRQAPGKEREFVAAISGDGDTTYYADSVKGRFTISRDNAKNTVYLQMNSLKPWDTAVYYCASTRFTWGLYSDFVNSYEYDAWGQGTPVTVSS; 7.16e-05
NBS1-57 (VHH, also called nano antibody NBS1-57) VHH: QVQLVESGGGLVQPGASLRLFCVASGRTFSSTGMGWFRQAPGKEREFVAAISGPGDTTYYVDSVKGRFTISRDNAKNTVYLQMNSLKPEDTAVYYCASAGFTWGLYSDFVNSYEYNYWGQGTPVTVSS; 0.00491
NBS1-2 (VHH, also called XBS1-2; nano antibody NBS1-2) VHH: QVQLVESGGGLVQAGDSLRLACAATGRTLSNYIMGWFRQAPGKEPLFVAAISRSGVITKYADSVEGRFTISRDNAKNTAYLQMTSLEPEDTAVYYCAASSSKYMATREYDYWGQGTQVTVSS; 0.00127

We next turn to a different binder, shown below.
Input NBS1-10 (VHH, also called nano antibody NBS1-10) VHH: QVQLVESGGGLVQPGGSLRLSCAASGRTFSSTGMGWFRQGPGKEREFVAAISGDGDTTYYADSVKGRFTISRDNAKNTVYLQMNSLKPEDTAVYYCASARFTWGLYSDFVNSYEYDAWGQGTPVTVSS . Output koff: 0.00311
